B1: Tudor domain-containing protein 3, residues 554 to 611; numbered along this chain, Q9H7E2 (parent)
chain: KMWKPGDECFALYWEDNKFYRAEVEALHSSGMTAVVKFIDYGNYEEVLLSNIKPIQTE

Variants of: B1
Assay: abundance fitness (aPCA) (normalised: wild type 0, dead -1); higher = more abundant; growth selection in yeast, the domain comes from the species named
Conditions: Homo sapiens
Entries and their measured abundance fitness follow.
The reply should be a number, written without any unit.

Reported abundance fitness ( K1C ) = -0.261

Reported abundance fitness ( T57R ) = -0.047

Reported abundance fitness ( I39G ) = -0.361
